measure: melting point

| structure-as-smiles | melting point |
| --- | --- |
| COc1cc(C(=O)Nc2nc(-c3ccco3)c(C(=O)c3ccccn3)s2)cc(OC)c1OC | 172 to 180 °C (dec.) |
| O=C(Nc1nc(-c2ccco2)c(C(=O)C2CC2)s1)c1ccncc1 | 225 to 230 °C (dec.) |
| Cc1ccc(C(=O)Nc2nc(-c3ccco3)c(C(=O)C3CCOCC3)s2)cc1 | 190 to 192 °C |
| O=C(Nc1nc(-c2ccco2)c(C(=O)c2ccccc2)s1)c1ccnc(N2CCCCC2)c1 | 195 to 198 °C |
| N#Cc1ccc(C(=O)Nc2nc(-c3ccco3)c(C(=O)c3ccccn3)s2)cc1 | 232 to 235 °C |

Entry under review: CC(C)n1nc(-c2sc(NC(=O)c3ccncc3)nc2-c2ccco2)ccc1=O . Reported melting point?
190 to 194 °C

Then this molecule: O=C(Nc1nc(-c2ccco2)c(C(=O)c2cccnn2)s1)c1ccncc1
280 to 281 °C

Then this molecule: Cc1cncc(C(=O)Nc2nc(-c3ccoc3)c(C(=O)C3CCOCC3)s2)c1
244 to 246 °C

Then this molecule: O=C(Nc1nc(-c2ccco2)c(-c2ccncc2)s1)c1ccnc(Cn2ccnc2)c1
239 to 250 °C
